Recorded values, source the supplement of paper PMC13380429.

# Tested on: HepG2
# Assay Remarks: cell viability relative to DMSO; higher = less toxic
# Condition Details: 72 h; 10 nM
Parameter Measured: cell viability (%)
Please state the figure in %; there is no need to write the unit.

Q: I'd like to know its cell viability. The compound in question is [Cl][Ti][Cl].c1cc[cH-]c1.c1cc[cH-]c1 [titanocene-dichloride]
Ans: 91.9

###

# Tested on: Vero E6
# Assay Remarks: cell viability relative to DMSO; higher = less toxic
# Condition Details: 72 h; 10000 nM
Parameter Measured: cell viability (%)
Field: numeric (%). Do not append units.

| Molecule | cell viability (%) |
| --- | --- |
| O=C(NCc1cccc(O)c1)Nc1nc(-c2ccncc2)cs1 [RKI-1447] | 73.4 |
| COC1CCN(c2cccc(-c3cc(NC(C)=O)nc(-n4nc(C)cc4C)n3)n2)CC1 [TC-G-1004] | 86.7 |
| O=S(=O)(c1ccccc1)c1cnc2c(N3CCNCC3)cccc2c1 | 106 |
| O=c1[nH]c2ccccc2n1C1CCN(CCCC(c2ccc(F)cc2)c2ccc(F)cc2)CC1 [pimozide] | 104 |

Q: Recorded cell viability of O=C1C(Cl)=C(N2CCOCC2)C(=O)N1c1ccc(Cl)c(Cl)c1 [RI-1] , please.
Ans: 107

Q: What does the data say about its cell viability? Entry: NCCc1ccc(O)c(O)c1 [dopamine]
Ans: 99.4

Q: What does the data say about its cell viability? Entry: COc1cc2ncnc(Oc3cccc(NC(=O)Nc4cc(C(C)(C)C(F)(F)F)on4)c3)c2cc1OC
Ans: 88.3

Q: I am curious: what cell viability value has been reported for CCCN(CCC)[C@H]1CCc2ccc(O)cc2C1 [7-hydroxy-DPAT] ?
Ans: 99.4
